Source: patent US10316017B2

system name: human Cot catalytic domain (30-397 amino acids) (Homo sapiens)
Construct: Purified recombinant human Cot catalytic domain (30-397 amino acids) was purchased from Cama Biosciences; purchased Cama Biosciences (so in the source)
Sequence (P41279 30-397): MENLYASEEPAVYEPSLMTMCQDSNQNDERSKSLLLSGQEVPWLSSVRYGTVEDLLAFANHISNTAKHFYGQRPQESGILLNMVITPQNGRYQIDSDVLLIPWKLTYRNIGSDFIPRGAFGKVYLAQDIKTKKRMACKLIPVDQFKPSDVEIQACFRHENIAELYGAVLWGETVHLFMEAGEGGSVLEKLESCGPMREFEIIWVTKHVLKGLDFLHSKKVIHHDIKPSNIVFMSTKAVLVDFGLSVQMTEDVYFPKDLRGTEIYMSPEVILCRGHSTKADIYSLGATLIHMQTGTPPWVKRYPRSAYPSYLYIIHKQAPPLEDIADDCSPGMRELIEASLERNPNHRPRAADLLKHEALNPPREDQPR
experiment description: High Throughput Cot Biochemical Assay (KinEASE TR-FRET)
condition: Cot KinEASE TR-FRET (HTRF) biochemical assay, 400 μM ATP; read-out: IC50 HTRF
Description: Example 61: High Throughput Cot Biochemical Assay In this assay, Cot-catalyzes the phosphorylation of a XL665-labeled peptide substrate. Europium conjugated phospho-tyrosine specific antibody binds the resulting phosphorylated peptide. […] Purified recombinant human Cot catalytic domain (30-397 amino acids) was purchased from Cama Biosciences. […]
recorded metric: pIC50
Reminder that pIC50 means the negative base-10 logarithm of the concentration expressed in mol/L.

compound="N#Cc1cnc2c(Cl)cc(N[C@H](c3c[nH]nn3)c3ccccc3Cl)cc2c1Nc1cnc(F)c(F)c1 [Example 376]" recorded_metric=pIC50 recorded_measurement=7.33
compound="[2H][C@](Nc1cc(Cl)c2ncc(C#N)c(NC3CS(=O)(=O)C3)c2c1)(c1ccc(F)cc1)c1cn(C2CC2)nn1 [Example 200]" recorded_metric=pIC50 recorded_measurement=6.61

Query: Reported pIC50, compound [2H][C@](Nc1cc(Cl)c2ncc(C#N)c(N[C@H](CCN3CCCCC3)c3ccccc3)c2c1)(c1ccc(F)cc1)c1cn(C2CC2)nn1 [Example 166] : ____
Result: 7.21

Query: Reported pIC50, compound [2H][C@](Nc1cc(Cl)c2ncc(C#N)c(N)c2c1)(c1ccc(F)cc1)c1cn(C2CC2)nn1 [Example 279] : ____
Result: 5.52
